Would you kindly list IC50 for each of these compounds?
Molecular target: GR (Homo sapiens)
Sequence (P04150 1-777): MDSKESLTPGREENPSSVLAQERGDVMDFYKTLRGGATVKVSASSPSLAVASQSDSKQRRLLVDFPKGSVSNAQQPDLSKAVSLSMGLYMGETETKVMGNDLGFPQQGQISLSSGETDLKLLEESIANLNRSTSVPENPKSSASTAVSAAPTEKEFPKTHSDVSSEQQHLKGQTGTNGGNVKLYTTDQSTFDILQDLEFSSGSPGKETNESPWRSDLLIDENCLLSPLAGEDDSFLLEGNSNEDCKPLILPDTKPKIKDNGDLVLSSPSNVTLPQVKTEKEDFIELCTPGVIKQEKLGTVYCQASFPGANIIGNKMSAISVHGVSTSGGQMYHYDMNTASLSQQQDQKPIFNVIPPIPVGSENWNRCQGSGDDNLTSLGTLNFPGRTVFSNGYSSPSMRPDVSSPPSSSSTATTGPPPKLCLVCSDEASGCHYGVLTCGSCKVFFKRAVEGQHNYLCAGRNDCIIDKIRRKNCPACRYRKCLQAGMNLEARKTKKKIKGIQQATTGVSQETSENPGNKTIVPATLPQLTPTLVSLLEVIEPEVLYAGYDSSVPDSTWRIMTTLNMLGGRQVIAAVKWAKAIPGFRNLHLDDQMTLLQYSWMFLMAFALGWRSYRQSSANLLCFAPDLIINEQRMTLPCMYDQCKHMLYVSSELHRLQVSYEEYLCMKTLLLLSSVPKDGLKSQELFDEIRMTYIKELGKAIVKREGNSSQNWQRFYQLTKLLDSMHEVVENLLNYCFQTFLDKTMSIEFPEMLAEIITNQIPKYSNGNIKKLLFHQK
Answers are plain numbers, in nM.

Guide cases for IC50, answers given:
// query Dear colleague, please send me the reported IC50 for O=c1[nH]c(C2CC=C(c3ccc4ncsc4c3)CC2)c(Cc2ccccc2)c(=O)[nH]1 (stereo not shown) when you can.
// result 142

// query Dear colleague, please send me the reported IC50 for O=c1[nH]c(C2CC=C(c3ccc4c(c3)OCCO4)CC2)c(Cc2ccccc2)c(=O)[nH]1 (stereo not shown) when you can.
// result 103

// query Dear colleague, please send me the reported IC50 for Cc1nn(C)c(C)c1C1=CCC(c2[nH]c(=O)[nH]c(=O)c2Cc2ccccc2)CC1 (stereo not shown) when you can.
// result 295

Read the next record carefully.
// query Dear colleague, please send me the reported IC50 for CN(C)c1ccc(C2=CCC(c3[nH]c(=O)[nH]c(=O)c3Cc3ccccc3)CC2)cn1 (stereo not shown) when you can.
// result 142

---

assay: Rat pharmacokinetics (PK) studies, oral gavage cassette; type: in vivo, male Sprague Dawley rats; settings: male, Sprague Dawley (or equivalent), rat plasma, nominal dose 3 mg/kg, read-out: AUC0-24
Measured Property: AUC(0-t) (ng·h/mL)
Give bare numbers, in ng·h/mL.

// query Dear colleague, please send me the reported AUC(0-t) for N#Cc1ccc(C2=CCC(c3[nH]c(=O)[nH]c(=O)c3Cc3ccccc3)CC2)c(C(F)(F)F)c1 (stereo not shown) when you can.
// result 988

---

target: glucocorticoid receptor (Homo sapiens, UniProt P04150); experiment: Hep G2 TAT assay: induction of TAT by dexamethasone in HepG2 cells
Would you kindly list Ki for each of these compounds?
Answers are plain numbers, in nM.

Guide cases for Ki, answers given:
// query Dear colleague, please send me the reported Ki for O=c1[nH]c(C2CC=C(c3c(Cl)cccc3Cl)CC2)c(Cc2ccccc2)c(=O)[nH]1 (centres unmarked) when you can.
// result 32

// query Dear colleague, please send me the reported Ki for Cn1ncc2c(C3=CCC(c4[nH]c(=O)[nH]c(=O)c4Cc4ccccc4)CC3)cccc21 (centres unmarked) when you can.
// result 485

// query Dear colleague, please send me the reported Ki for CN1CCN(C(=O)c2ccc(C3=CCC(c4[nH]c(=O)[nH]c(=O)c4Cc4ccccc4)CC3)c(Cl)c2)CC1 (centres unmarked) when you can.
// result 480

// query Dear colleague, please send me the reported Ki for COc1cc(C#N)ccc1C1=CCC(c2[nH]c(=O)[nH]c(=O)c2Cc2ccccc2)CC1 (centres unmarked) when you can.
// result 33

// query Dear colleague, please send me the reported Ki for O=c1[nH]c(C2CC=C(c3ccccc3OC(F)(F)F)CC2)c(Cc2ccccc2)c(=O)[nH]1 (centres unmarked) when you can.
// result 50

Okay, here is my list. What is Ki for each of these?
1. O=c1[nH]c(C2CC=C(c3cccnc3N3CCC(F)(F)CC3)CC2)c(Cc2ccccc2)c(=O)[nH]1 (centres unmarked)
2. O=c1[nH]c(C2CC=C(c3ccc(Cl)cc3F)CC2)c(Cc2ccccc2)c(=O)[nH]1 (centres unmarked)
3. CC(C)n1cc(C2=CCC(c3[nH]c(=O)[nH]c(=O)c3Cc3ccccc3)CC2)c(C(F)(F)F)n1 (centres unmarked)

// result
[970, 400, 223]

---

assay: Rat pharmacokinetics (PK) studies, oral gavage cassette; format: in vivo, male Sprague Dawley rats; settings: male, Sprague Dawley (or equivalent), rat plasma, nominal dose 3 mg/kg
Measured Property: Cmax
Be sure to follow the number with its unit.

// query Dear colleague, please send me the reported Cmax for N#Cc1ccc(C2=CCC(c3[nH]c(=O)[nH]c(=O)c3Cc3ccccc3)CC2)c(C(F)(F)F)c1 (stereo not shown) [Example 32] when you can.
// result 453 ng/mL

---

target: glucocorticoid receptor (Homo sapiens); experiment: Hep G2 TAT assay: induction of TAT by dexamethasone in HepG2 cells
Would you kindly list pKi for each of these molecules?
One number for each entry, as −log10 of the molar value.

// query Dear colleague, please send me the reported pKi for CCS(=O)(=O)c1ccc(C2=CCC(c3[nH]c(=O)[nH]c(=O)c3Cc3ccccc3)CC2)c(F)c1 (stereo not shown) when you can.
// result 7.19

// query Dear colleague, please send me the reported pKi for O=c1[nH]c(C2CC=C(c3ccc(Cl)cc3Cl)CC2)c(Cc2ccccc2)c(=O)[nH]1 (stereo not shown) when you can.
// result 7.19

// query Dear colleague, please send me the reported pKi for Cc1ncccc1C1=CCC(c2[nH]c(=O)[nH]c(=O)c2Cc2ccccc2)CC1 (stereo not shown) when you can.
// result 7.00

Next:
// query Dear colleague, please send me the reported pKi for O=c1[nH]c(C2CC=C(c3ccc(C4CC4)cc3F)CC2)c(Cc2ccccc2)c(=O)[nH]1 (stereo not shown) when you can.
// result 6.95

---

Target: glucocorticoid receptor (Homo sapiens, UniProt P04150)
Sequence (P04150 1-777): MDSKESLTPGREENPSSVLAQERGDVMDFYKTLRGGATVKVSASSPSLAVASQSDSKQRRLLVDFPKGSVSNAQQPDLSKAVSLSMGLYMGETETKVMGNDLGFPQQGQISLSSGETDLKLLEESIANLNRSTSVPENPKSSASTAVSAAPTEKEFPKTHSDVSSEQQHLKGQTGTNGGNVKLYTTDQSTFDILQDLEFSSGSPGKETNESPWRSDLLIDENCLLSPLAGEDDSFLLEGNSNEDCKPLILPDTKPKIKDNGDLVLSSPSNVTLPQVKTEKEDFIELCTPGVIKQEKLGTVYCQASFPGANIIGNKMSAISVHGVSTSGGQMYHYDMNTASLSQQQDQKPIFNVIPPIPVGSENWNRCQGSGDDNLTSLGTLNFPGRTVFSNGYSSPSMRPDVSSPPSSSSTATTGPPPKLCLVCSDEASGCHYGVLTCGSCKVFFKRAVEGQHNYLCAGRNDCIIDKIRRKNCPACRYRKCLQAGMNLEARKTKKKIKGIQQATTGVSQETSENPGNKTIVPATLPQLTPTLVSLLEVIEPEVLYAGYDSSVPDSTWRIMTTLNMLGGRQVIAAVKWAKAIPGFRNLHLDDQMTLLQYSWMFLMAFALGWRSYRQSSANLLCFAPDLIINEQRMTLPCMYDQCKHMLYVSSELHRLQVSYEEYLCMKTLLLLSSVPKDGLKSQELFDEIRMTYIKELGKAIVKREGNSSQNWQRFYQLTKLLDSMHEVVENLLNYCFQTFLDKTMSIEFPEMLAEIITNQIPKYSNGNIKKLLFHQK
Assay: Hep G2 TAT assay: induction of TAT by dexamethasone in HepG2 cells
Measured Property: pKi
Give bare numbers, as −log10 of the molar value.

Guide cases for pKi, answers given:
// query Dear colleague, please send me the reported pKi for N#Cc1ccc(C2=CC[C@H](c3[nH]c(=O)[nH]c(=O)c3Cc3ccccc3)CC2)c(Cl)c1 (single isomer, unassigned) when you can.
// result 7.16

// query Dear colleague, please send me the reported pKi for O=c1[nH]c(C2CC=C(c3cccnc3N3CCCCC3)CC2)c(Cc2ccccc2)c(=O)[nH]1 (stereo not drawn) when you can.
// result 6.82

// query Dear colleague, please send me the reported pKi for O=c1[nH]c(C2CC=C(c3cccc(C(F)(F)F)c3Cl)CC2)c(Cc2ccccc2)c(=O)[nH]1 (stereo not drawn) when you can.
// result 6.96

Okay, here is my list. What is pKi for each of these?
1. N#Cc1ccccc1C1=CCC(c2[nH]c(=O)[nH]c(=O)c2Cc2ccccc2)CC1 (stereo not drawn)
2. O=c1[nH]c(C2CC=C(c3cccc(Cl)c3Cl)CC2)c(Cc2ccccc2)c(=O)[nH]1 (stereo not drawn)
3. O=c1[nH]c(C2CC=C(c3ccc(OC(F)(F)F)cc3F)CC2)c(Cc2ccccc2)c(=O)[nH]1 (stereo not drawn)

// result
6.92
7.00
6.92
